I'd appreciate it if you could supply TGI values for the items below.
tested on: HCT-15 colon; assay: NCI tumour cell line growth inhibition, 48 h
One number for each entry, in µM.

> print(dat)
                                   molecule  experimental.target  unit  observed.result
1  Oc1c(Cl)cc(Cl)c2ccc(Cn3cc(-c4cc(C(F)(F)F)cc(C(F)(F)F)c4)nn3)nc12         HCT-15 colon    µM             3.55

Here is another molecule to look at.
Ask: Answer with the recorded TGI for the molecule listed here: O=C1C2=C(C(=O)c3cnccc31)C1C=CC2CC1 (stereo not given)
Result: 4.94

---

test system: BT-549 breast; assay: NCI tumour cell line growth inhibition, 48 h
READOUT KIND: GI50

Before answering, review these 10 worked examples.
COMPOUND	GI50
CC1CN(S(=O)(=O)c2oc(-c3ccc(Cl)cc3)nc2C#N)CC(C)O1 (configuration not stated)	1970 nM
C[C@@H]1O[C@@H](O[C@H]2CC[C@]3(C=O)[C@H]4CC[C@]5(C)[C@@H](c6ccc(=O)oc6)CC[C@]5(O)[C@@H]4CC[C@]3(O)C2)[C@H](O)[C@H](O)[C@H]1O[C@@H]1O[C@H](CO)[C@@H](O)[C@H](O)[C@H]1O	25.2 nM
CC[C@@]1(OC(=O)CN)C(=O)OCc2c1cc1n(c2=O)Cc2c-1nc1cc3c(cc1c2CCl)OCO3	91.8 nM
Cc1cc(C)c2c(n1)sc1c(N)ncnc12	11300 nM
CN1CCN(CCOc2ccc(-c3cnc4c(-c5cccc(F)c5)cnn4c3)cc2)CC1	3510 nM
COC(=O)C12CC(NC(=O)c3csc([C@@H](C[C@H](C(C)C)N(C)C(=O)[C@@H](NC(=O)[C@H]4CCCCN4C)C4CC4)OC(C)=O)n3)(C1)C2	7.66 nM
Cc1ccc2nc(-c3ccc(OCC(=O)N=Nc4c(O)[nH]c5ccccc45)cc3)[nH]c2c1	45100 nM
C=C1C(=O)O[C@H]2[C@H]1CC/C(COC(=O)NCc1ccc(OC)cc1)=C\CC[C@@]1(C)O[C@@H]21	696 nM
CC(C)c1nc(N(C)S(C)(=O)=O)nc(-c2ccc(F)cc2)c1/C=C/[C@@H](O)C[C@@H](O)CC(=O)O	> 100000 nM
CCOC(=O)c1c(C)n(Cc2ccc(Cl)cc2Cl)c2c1cc1oc(=O)c(=O)n3cnc2c13	21600 nM

Parameters: items (list). Returns: GI50 for each item.
1. Cn1cccc1-c1cc(-c2ccccc2)[nH]c(=O)c1C#N
2. CCN1CCN(Cc2ccc(NC(=O)Nc3nc4ccc(Oc5ccnc(C(=O)NC)c5)cc4s3)cc2C(F)(F)F)CC1
3. CN(C)CCNC(=O)c1ccc(-c2nc3ccc4[nH]ncc4c3c3c2C2CCC3C2)cc1 (configuration not stated)

Result:
1: > 100000 nM; 2: 2320 nM; 3: 1250 nM

---

tested on: UACC-257 melanoma; assay: NCI tumour cell line growth inhibition, 48 h
Where a SMILES comes first, the peptide text is derived from it. [ ]: non-standard residue; d: D form. The star is where a group is joined. Bn2Val = CC(C)[C@@H](C(=O)*)N(Cc1ccccc1)Cc1ccccc1; NMeV = CN[C@H](C(=O)O)C(C)C; X29 = COc1ccc(CN*)c(OC)c1; dNMeA = CN[C@H](C)C(=O)O
READOUT KIND: TGI

Before answering, review these 3 worked examples.
COMPOUND	EXPERIMENTAL TARGET	READOUT KIND	OBSERVED RESULT
COc1ccc(-c2cc(C(=O)Nc3cc(C(F)(F)F)cc(C(F)(F)F)c3)c3ccccc3n2)cc1	UACC-257 melanoma	TGI	51.4 µM
COC(=O)c1cc2c(cc1Cl)SC1=NN(C)S(=O)N1S2(=O)=O (centres undefined)	UACC-257 melanoma	TGI	> 100 µM
COc1ccc(OC(C(=O)O)C(C)C)c2c1CCCC2=O (centres undefined)	UACC-257 melanoma	TGI	> 100 µM

Parameters: items (list). Returns: TGI for each item.
1. NNc1cnn(-c2ccccc2)c(=O)c1Cl
2. CN(C)/C=N\c1ccnc(=O)[nH]1
3. CN(C)CCNC(=O)c1cccc2cc3cc(O)ccc3nc12
4. COc1cc2ncnc(-n3ncc4cc(NC(=O)Nc5ccc(Cl)c(Cl)c5)ccc43)c2cc1OC

Result:
1. > 100 µM
2. > 100 µM
3. 2.94 µM
4. 6.79 µM

Parameters: items (list). Returns: TGI for each item.
1. O=C(Sc1c(-c2ccccc2)c(=O)n(-c2ccccc2)c(=S)n1-c1ccccc1)c1cccs1
2. N/C(=N\NS(=O)(=O)c1ccccc1)Oc1ccc(Br)cc1Br
3. CN(C(=O)c1ccc2c(c1)sc1c(=O)n(C)c3ccccc3c12)c1ccccc1
4. Clc1cccc(N2CCN(CCCN3CCc4c([nH]c5ccccc45)C3c3cccnc3)CC2)c1 (centres undefined)
5. COc1ccc2c(c1OC)-c1c(c3ccc([N+](=O)[O-])cc3c(=O)n1CCCBr)C2=O
6. CN(C)c1nc(=NCc2ccco2)ss1

Result:
1: > 100 µM; 2: > 100 µM; 3: > 100 µM; 4: 12.1 µM; 5: > 100 µM; 6: > 79.4 µM

Parameters: items (list). Returns: TGI for each item.
1. CC[C@@]1(OC(=O)CN)C(=O)OCc2c1cc1n(c2=O)Cc2c-1nc1cc3c(cc1c2CCl)OCO3
2. CS[C@]12[C@@H]3C(=O)N(C)C(=O)[C@@H]3[C@](C)(C(=O)N1C)C(=O)N2c1ccccc1
3. CC(C)(O)C1CC[C@]2(C)[C@H]3CC[C@@H]4[C@@]5(C)CCCC(C)(C)[C@@H]5CC[C@@]4(C)[C@]3(C)CC[C@@H]12 (some centres undefined)

Result:
15.1 µM
> 100 µM
> 100 µM

Parameters: items (list). Returns: TGI for each item.
1. Nc1nccc(NCC2(CO)CCC2)n1
2. CCCCCCCCCC(=O)N[C@@H](c1ccco1)[C@@H](O)C(=O)O[C@H]1C[C@@]2(O)[C@@H](OC(=O)c3ccccc3)[C@@H]3[C@]4(OC(C)=O)CO[C@@H]4C[C@H](O)[C@@]3(C)C(=O)[C@H](OC(C)=O)C(=C1C)C2(C)C
3. COc1ccc(CNC(=O)[C@@H]2CCCN2C(=O)[C@@H](C)N(C)C(=O)[C@H](C(C)C)N(C)C(=O)[C@@H](NC(=O)[C@H](C(C)C)N(Cc2ccccc2)Cc2ccccc2)C(C)C)c(OC)c1 (Bn2Val-V[NMeV][dNMeA]P-X29)
4. O=c1nc(-c2ccccc2)cc(CC(O)c2ccc(Cl)c(Cl)c2)[nH]1 (centres undefined)
5. C=C1C(=O)O[C@H]2[C@H]1CC/C(COC(=O)NCc1ccc(OC)cc1)=C\CC[C@@]1(C)O[C@@H]21
6. CNNC(=N\S(=O)(=O)c1cc(C)c(Cl)cc1SCc1ccccc1)/N=C/c1ccc([N+](=O)[O-])s1

Result:
> 100 µM
11.7 µM
11.9 µM
> 100 µM
2.55 µM
> 100 µM

Parameters: items (list). Returns: TGI for each item.
1. COC(=O)CCc1c(Cc2ccc[nH]2)[nH]c(C(=O)OCc2ccccc2)c1C
2. COCC1OC(S(=O)(=O)c2ccccc2)C(O)C(OC)C1OC (centres undefined)
3. O=[N+]([O-])c1ccc2oc(=Nc3ccccc3)c(Nc3ccccc3)nc2c1

Result:
["38.9 µM", "> 100 µM", "> 100 µM"]

Parameters: items (list). Returns: TGI for each item.
1. Cc1ccnc2nc(N)ccc12
2. O=C1OC(c2ccccc2)=N/C1=C\c1ccc(Oc2ccc(Cl)c(Cl)c2)cc1
3. O=CC(O)C(O)C(O)C1CNC(=S)O1 (centres undefined)
4. COC(=O)[C@@](C)(COC(=O)C(C)(C)C)NC(=O)OC(C)(C)C

Result:
> 100 µM
> 100 µM
> 100 µM
> 100 µM

Parameters: items (list). Returns: TGI for each item.
1. COc1ccc(/C=C/C(=O)c2ccc(-n3cc(CN4CCN(c5cc6c(cc5F)c(=O)c(C(=O)O)cn6C5CC5)CC4)nn3)cc2)cc1OC
2. Cc1cc(C)c2c(n1)sc1c(N)ncnc12
3. O=C(O)/C=C\C(=O)Nc1ccccn1
4. CCn1c(-c2cc3c([nH]c4ccccc43)c(-c3cccc(O)c3)n2)n[nH]c1=S
5. Oc1c(Cl)cc(Cl)c2ccc(Cn3cc(-c4cc(C(F)(F)F)cc(C(F)(F)F)c4)nn3)nc12

Result:
1. > 100 µM
2. > 25 µM
3. > 100 µM
4. 16.4 µM
5. 2.99 µM

Parameters: items (list). Returns: TGI for each item.
1. CC1(C)C2CCC3(OCCO3)C1C(O)C2 (centres undefined)
2. Cc1ccc(-n2cc(-c3ccc(Cl)cc3)c3c(NN)ncnc32)cc1
3. Cn1c(=O)c2[nH]c(SCCN3CCOCC3)nc2n(C)c1=S

Result:
1. > 100 µM
2. 16.1 µM
3. > 100 µM

Parameters: items (list). Returns: TGI for each item.
1. Cl/C(N=Nc1ccccc1)=N/Nc1ccccc1
2. NS(=O)(=O)c1ccc(N=Nc2c(O)[nH]c3ccc(C(=O)NCc4ccncc4)cc23)cc1

Result:
1. > 100 µM
2. > 25 µM
